Each entry below carries its measured AC50, system: Cytochrome P450 2C9 (Homo sapiens, UniProt P11712).
Sequence (P11712 whole entry): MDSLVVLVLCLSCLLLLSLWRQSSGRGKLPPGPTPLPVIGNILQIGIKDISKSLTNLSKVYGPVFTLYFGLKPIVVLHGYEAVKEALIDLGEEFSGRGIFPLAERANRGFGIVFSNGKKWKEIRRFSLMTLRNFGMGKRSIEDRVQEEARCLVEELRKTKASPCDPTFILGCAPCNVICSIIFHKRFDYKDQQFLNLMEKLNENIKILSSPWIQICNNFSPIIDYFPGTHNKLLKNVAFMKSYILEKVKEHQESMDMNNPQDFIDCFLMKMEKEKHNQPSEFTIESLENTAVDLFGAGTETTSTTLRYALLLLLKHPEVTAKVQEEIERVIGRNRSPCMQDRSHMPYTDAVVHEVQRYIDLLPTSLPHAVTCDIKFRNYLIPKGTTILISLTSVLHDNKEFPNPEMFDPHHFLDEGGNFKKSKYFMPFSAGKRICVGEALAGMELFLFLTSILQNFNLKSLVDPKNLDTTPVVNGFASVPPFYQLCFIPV

Known results for compounds:
ITEM_SMILES: Cc1ccccc1C(=O)NN(C)c1nc2ccccc2nc1C(F)(F)F
MEASURED_ON: Cytochrome P450 2C9 (Homo sapiens, UniProt P11712)
AC50: inconclusive

ITEM_SMILES: COc1ccc(NC(=O)CCNS(=O)(=O)c2ccc3c(c2)c(=O)n(C)c(=O)n3C)cc1
MEASURED_ON: Cytochrome P450 2C9 (Homo sapiens, UniProt P11712)
AC50: inconclusive

ITEM_SMILES: CS(=O)(=O)Nc1cccc(-c2cc(Nc3ccccc3)ncn2)c1
MEASURED_ON: Cytochrome P450 2C9 (Homo sapiens, UniProt P11712)
AC50: inconclusive

ITEM_SMILES: O=C(OCn1ncc(Cl)c(Cl)c1=O)c1cccc(C(F)(F)F)c1
MEASURED_ON: Cytochrome P450 2C9 (Homo sapiens, UniProt P11712)
AC50: inconclusive

ITEM_SMILES: CCn1c(SC)nnc1C1CCN(S(=O)(=O)c2ccc(OC)cc2)CC1
MEASURED_ON: Cytochrome P450 2C9 (Homo sapiens, UniProt P11712)
AC50: inconclusive

ITEM_SMILES: COC(=O)c1cc(C(=O)c2ccc(Cl)cc2Cl)cn1C
MEASURED_ON: Cytochrome P450 2C9 (Homo sapiens, UniProt P11712)
AC50: inconclusive

ITEM_SMILES: CCCCCCCCCCCCCCCCCC(=O)NC[C@@H](COP(=O)([O-])OCC[N+](C)(C)C)OCC
MEASURED_ON: Cytochrome P450 2C9 (Homo sapiens, UniProt P11712)
AC50: inconclusive

--- query ---
// AC50 lookup, key: COc1ccc(CNc2nc(-c3ccccc3CN(C)C)nc3ccccc23)c(OC)c1
inconclusive
